Reported values of DC50 for individual entries
# target_of_assay: HiBit-KRAS^G12C (Homo sapiens, UniProt P01116, G12C)
# Sequence (P01116 1-186 isoform P01116-2 G12C limits assumed): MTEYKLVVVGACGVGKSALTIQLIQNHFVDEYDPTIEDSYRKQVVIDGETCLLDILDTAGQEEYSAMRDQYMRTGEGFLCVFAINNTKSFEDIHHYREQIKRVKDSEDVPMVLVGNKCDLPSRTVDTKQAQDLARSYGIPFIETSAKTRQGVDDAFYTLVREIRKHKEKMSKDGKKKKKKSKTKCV
# assay_overview: HiBit degradation assay in SW1573 HiBit-KRas^G12C cells
# Assay type: cell-based
# Parameters: expressed in transfected cells; host or cells: SW1573 (clone E6), modified pcDNA3.1 vector, TK promoter
# condition_set: SW1573 HiBit-KRas^G12C, 0.1% DMSO, 24 hours; read-out: KRas^G12C-HIBit (SW1573; 0.1% DMSO) DC50*

compound	DC50
C=C(F)C(=O)N1CCN(c2nc(O[C@H](C)CN3CCC(COc4cc([C@@H](C(=O)N5C[C@H](O)C[C@H]5C(=O)N[C@@H](C)c5ccc(-c6scnc6C)cc5)C(C)C)on4)CC3)nc3c(F)c(-c4cc(O)cc5ccccc45)c(Cl)cc23)CC1 [Compound 18]	> 1000 nM
C=CC(=O)N1CCN(c2nc(OCCN3CCC(OCCOCC(=O)N[C@H](C(=O)N4C[C@H](O)C[C@H]4C(=O)N[C@@H](C)c4ccc(-c5scnc5C)cc4)C(C)(C)C)CC3)nc3c2CCN(c2cccc4cccc(C)c24)C3)C[C@@H]1CC#N [Compound 30]	> 1000 nM

====

# target_of_assay: HiBit-KRAS^G12C (Homo sapiens, UniProt P01116, G12C)
# assay_overview: HiBit degradation assay in SW1573 HiBit-KRas^G12C cells
# Format: cell-based
# Parameters: expressed in transfected cells; host or cells: SW1573 (clone E6), modified pcDNA3.1 vector, TK promoter
# condition_set: SW1573 HiBit-KRas^G12C, 0.1% DMSO, 24 hours; read-out: KRas^G12C-HIBit (SW1573; 0.1% DMSO) DC50*

compound	DC50
C=CC(=O)N1CCN(c2nc(OCCN3CCC(COCC(=O)N[C@H](C(=O)N4C[C@H](O)C[C@H]4C(=O)N[C@@H](C)c4ccc(-c5scnc5C)cc4)C(C)(C)C)CC3)nc3c(F)c(-c4cc(O)cc5ccccc45)c(Cl)cc23)CC1 [Compound 63]	0.1 to 1 µM
C=CC(=O)N1CCN(c2nc(OCCN3CCC(COCC(=O)N[C@H](C(=O)N4C[C@@H](O)C[C@H]4C(=O)N[C@@H](C)c4ccc(-c5scnc5C)cc4)C(C)(C)C)CC3)nc3c(F)c(-c4cc(O)cc5ccccc45)c(Cl)cc23)CC1	> 1 µM
C=C(F)C(=O)N1CCN(c2nc(OCCN3CCC(OCCOc4cc([C@H](C(=O)N5C[C@H](O)C[C@H]5C(=O)N[C@@H](C)c5ccc(-c6scnc6C)cc5)C(C)C)on4)CC3)nc3c(F)c(-c4cc(O)cc5ccccc45)c(Cl)cc23)C[C@@H]1CC#N	0.1 to 1 µM
C=CC(=O)N1CCN(c2nc(O[C@H](C)CN3CCC(CN(C)[C@H]4C[C@@H](OCC(=O)N[C@H](C(=O)N5C[C@H](O)C[C@H]5C(=O)N[C@@H](C)c5ccc(-c6scnc6C)cc5)C(C)(C)C)C4)CC3)nc3c(F)c(-c4cc(O)cc5ccccc45)c(Cl)cc23)CC1	> 1 µM
C=CC(=O)N1CCN(c2nc(O[C@H](C)CN3CCC(OCCN4CCN(CC(=O)N[C@H](C(=O)N5C[C@H](O)C[C@H]5C(=O)N[C@@H](C)c5ccc(-c6scnc6C)cc5)C(C)(C)C)CC4)CC3)nc3c(F)c(-c4cc(O)cc5ccccc45)c(Cl)cc23)CC1	< 0.1 µM
C=CC(=O)N1CCN(c2nc(O[C@H](C)CN3CCC(OCCOCCOCCOCCOc4cc(-c5scnc5C)ccc4CNC(=O)[C@@H]4C[C@@H](O)CN4C(=O)[C@H](c4cc(C)no4)C(C)C)CC3)nc3c(F)c(-c4cc(O)cc5ccccc45)c(Cl)cc23)CC1	> 1 µM
C=CC(=O)N1CCN(c2nc(O[C@H](C)CN3CCC(CN4CC5(CN(CC(=O)N[C@H](C(=O)N6C[C@H](O)C[C@H]6C(=O)N[C@@H](C)c6ccc(-c7scnc7C)cc6)C(C)(C)C)C5)C4)CC3)nc3c(F)c(-c4cc(O)cc5ccccc45)c(Cl)cc23)CC1	> 1 µM
C=CC(=O)N1CCN(c2nc(O[C@H](C)CN3CCC(COc4cc([C@@H](C(=O)N5C[C@H](O)C[C@H]5C(=O)N[C@@H](C)c5ccc(-c6scnc6C)cc5)C(C)C)on4)CC3)nc3c(F)c(-c4cc(O)cc5ccccc45)c(Cl)cc23)CC1	0.1 to 1 µM
